Overview of recorded log reduction at 0.5 % strength for various molecules
system: S. haemolyticus 114126; experiment: BCT test (bacterial contact time), 120 s, log reduction / effect fraction; CI by Compusyn; type: cell-based; details: Staphylococcus haemolyticus, 114126, 2 min, dose 0.5% w/v; contact 120 s; 25% EtOH
Value type: log reduction at 0.5 % strength

>>> print(df.to_string())
                                   molecule                       value_type  measured
0                           OC/C=C/c1ccccc1  log reduction at 0.5 % strength       4.1
1  CC(=O)OCc1ccccc1 [Benzyl acetate, benzyl acetate]  log reduction at 0.5 % strength       6.2
2  Cc1ccc2c(c1)OCC(=O)CO2 [Calone, 7-methyl-2H-1,5-benzodioxepin-3(4H)-one]  log reduction at 0.5 % strength         0
3                          O=c1ccc2ccccc2o1  log reduction at 0.5 % strength         0
